# experimental.system: T1, recombinant biotinylated human PAR2 extracellular domain (residues 1-75), N-terminal AviTag, C-terminal Flag … (human, UniProt P55085 26-75, biotin on the AviTag (enzymatic biotinylation))
# T1 construct: also called Bio-human-PAR2 ECD; human PAR2 ECD; not shown: N-terminal AviTag (Avidity LLC); C-terminal Flag and poly Histidine tags
# T1 sequence (P55085 26-75): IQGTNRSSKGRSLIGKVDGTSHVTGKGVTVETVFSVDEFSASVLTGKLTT
# test.description: HTRF competition with Par0067 IgG, scFv
Parameter threshold = 4 fold. Response is YES when Fold IC50 (pH 6.0 v pH 7.4) meets or exceeds it, else NO.

- binder: "PaB670064 scFv (scFv, V domains shown, purified scFv; also called ZZ1KX6-B09) VH: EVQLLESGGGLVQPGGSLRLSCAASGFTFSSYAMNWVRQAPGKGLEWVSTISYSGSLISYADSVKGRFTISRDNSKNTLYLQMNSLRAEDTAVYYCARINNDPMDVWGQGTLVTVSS VL: SIELTQPPSVSVSPGQTASITCSGDNLGKKYVQWYQQKPGQSPVLVIYDDSNRPSGIPERFSGSNSGNTATLTISGTQAMDEADYYCHTWHHNPHTGETNHFGGGTKLTVL"
  group: "YES"
- binder: "PaB670095 scFv (scFv, V domains shown, purified scFv; also called ZZ1ODS-H05) VH: EVQLLESGGGLVQPGGSLRLSCAASGFTFSSYAMNWVRQAPGKGLEWVSTISYHGHHISYADSHHHRFTISRDNSKNTLYLQMNSLRAEDTAVYYCARINNDPMDVWGQGTLVTVSS VL: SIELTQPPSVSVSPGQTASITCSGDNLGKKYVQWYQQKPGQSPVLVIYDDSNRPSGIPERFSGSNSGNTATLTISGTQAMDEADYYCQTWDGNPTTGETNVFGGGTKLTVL"
  group: "YES"
- binder: "PaB670071 scFv (scFv, V domains shown, purified scFv; also called ZZ1L3F-A02) VH: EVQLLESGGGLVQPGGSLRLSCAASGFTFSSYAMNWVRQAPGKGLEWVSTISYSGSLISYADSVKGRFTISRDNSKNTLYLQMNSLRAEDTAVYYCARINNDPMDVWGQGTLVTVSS VL: SIELTQPPSVSVSPGQTASITCSGDNLGKKYVQWYQQKPGQSPVLVIYDDSNRPSGIPERFSGSNSGNTATLTISGTQAMDEADYYCHTWHHHHHTGEHNHFGGGTKLTVL"
  group: "YES"
- binder: "PaB670084 scFv (scFv, V domains shown, purified scFv; also called ZZ1PXA-A05) VH: EVQLLESGGGLVQPGGSLRLSCAASGFTFSSYAMNWVRQAPGKGLEWVSTISHSGHLIHHADSHKGRFTISRDNSKNTLYLQMNSLRAEDTAVYYCARINNDPMDVWGQGTLVTVSS VL: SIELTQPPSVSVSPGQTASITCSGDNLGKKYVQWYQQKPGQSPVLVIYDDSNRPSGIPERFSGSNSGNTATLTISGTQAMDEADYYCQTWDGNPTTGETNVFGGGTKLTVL"
  group: "YES"
- binder: "PaB670101 scFv (scFv, V domains shown, purified scFv; also called ZZ1ODO-H01) VH: EVQLLESGGGLVQPGGSLRLSCAASGFTFSSYAMNWVRQAPGKGLEWVSTISYSGSLISYADSVKGRFTISRDNSKNTLYLQMNSLRAEDTAVYYCARIHHHPHDHWGQGTLVTVSS VL: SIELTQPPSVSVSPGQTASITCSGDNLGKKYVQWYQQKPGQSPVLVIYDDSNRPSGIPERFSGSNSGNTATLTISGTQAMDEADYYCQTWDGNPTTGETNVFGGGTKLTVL"
  group: "NO"
